# reported IC50; entries follow
system: Colo 320/MDR-LRP multidrug resistant overexpressing ABCB1 (MDR1)-LRP; experiment: cells; type: cell-based, human; conditions: Homo sapiens, 24 h, read-out: Colo 320 Cytotoxicity

# count of solved cases: 2
[
  {
    "COMPOUND": "Cc1ccc(C(=O)[Se]CCC#N)cc1 [Compound 8, Se-(cyanoethyl) 4-methylbenzoselenoate]",
    "IC50": "1 to 10 µM"
  },
  {
    "COMPOUND": "Cc1ccc(C(=O)[Se]CC#N)cc1 [Compound 7, Se-(cyanomethyl) 4-methylbenzoselenoate]",
    "IC50": "1 to 10 µM"
  }
]

## Task Look up Colo 320/MDR-LRP multidrug resistant overexpressing ABCB1 (MDR1)-LRP data: IC50 of N#CC[Se]C(=O)c1ccc(Cl)c(Cl)c1 [Compound 15] , then report it.
## Result 1 to 10 µM

## Task State IC50 (Colo 320/MDR-LRP multidrug resistant overexpressing ABCB1 (MDR1)-LRP) of N#CC[Se]C(=O)c1ccc(C(=O)[Se]CC#N)cc1 [Compound 18] .
## Result 1 to 10 µM
